- system_under_test: Ghrelin receptor (Homo sapiens)
- experiment_description: Inositol phosphate turnover assay in COS-7 cells transfected with the Ghrelin receptor
- test_conditions: value given in the text
result_type: pEC50
# reply with the number alone; pEC50 is -log10 of concentration in mol/L

Data request: Would you kindly share the measured pEC50 for PEG2-K[^natGa]Ga-NODAGA-K-(D-1-Nal)-FwLL-NH2 [14a] ?
Data returned: 5.74

====

- system_under_test: Ghrelin receptor (Homo sapiens)
- experiment_description: Inositol phosphate turnover assay in COS-7 cells transfected with the Ghrelin receptor
- test_conditions: inverse agonist potency, COS-7 cells transfected with the Ghrelin receptor
Would you mind telling me the reported EC50 of each entry?
Entry rule: numbers only, all in nM.

Data request: Would you mind telling me what EC50 value was observed for [^natGa]Ga-NODAGA-KK-(D-1-Nal)-FwLL-NH2 [10a] ?
Data returned: 34.7

Data request: Need EC50, item K(Palm)-K-(D-1-Nal)-FwLK[^natGa]Ga-NODAGA-NH2 [18a]
Data returned: 267

Data request: Need EC50, item Palm-KK-(D-1-Nal)-FwLK[^natGa]Ga-NODAGA-NH2 [17a]
Data returned: 592

Data request: I would be grateful if you could share the reported EC50 for Palm-K[^natGa]Ga-NODAGA-K-(D-1-Nal)-FwLL-NH2 [13a] .
Data returned: 28.7

Data request: // lookup EC50 for K[^natGa]Ga-NODAGA-K-(D-1-Nal)-FwLK(Palm)-NH2 [16a]
Data returned: 13.6

Data request: Recorded EC50 for [^natGa]Ga-NODAGA-KK-(D-1-Nal)-FwLK(Palm)-NH2 [15a] , please?
Data returned: 16.5

Data request: Quick one: EC50 of [^natGa]Ga-NODAGA-K(Palm)-K-(D-1-Nal)-FwLL-NH2 [12a] ?
Data returned: 20.3

Data request: Which EC50 value is on record for [^natGa]Ga-NODAGA-K-(D-1-Nal)-FwLL-NH2 [9a] ?
Data returned: 64.8

====

- system_under_test: Ghrelin receptor (Homo sapiens, UniProt Q92847)
- Sequence (Q92847 whole entry, species assumed): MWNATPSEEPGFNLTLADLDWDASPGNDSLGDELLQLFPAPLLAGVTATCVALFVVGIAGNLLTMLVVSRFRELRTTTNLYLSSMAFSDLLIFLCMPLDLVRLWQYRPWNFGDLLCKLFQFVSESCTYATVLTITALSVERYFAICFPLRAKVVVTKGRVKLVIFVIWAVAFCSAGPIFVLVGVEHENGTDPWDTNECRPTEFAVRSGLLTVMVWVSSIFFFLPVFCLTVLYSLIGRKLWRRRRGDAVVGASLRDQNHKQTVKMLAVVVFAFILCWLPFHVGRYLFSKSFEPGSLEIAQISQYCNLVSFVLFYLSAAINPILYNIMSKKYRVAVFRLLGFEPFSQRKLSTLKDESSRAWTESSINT
- experiment_description: Competitive binding assay with ^125I-His-Ghrelin in COS-7 cells stably transfected with the Ghrelin receptor
- Set-up: expressed in transfected cells; host or cells: COS-7
- test_conditions: competition with ^125I-His-Ghrelin; read-out: Ki ± SD
result_type: Ki (nM)
// units = nM; emit number, no label

Data request: Any idea what Ki was measured for [^natGa]Ga-NODAGA-KK-(D-1-Nal)-FwLL-NH2 [10a] ?
Data returned: 30.3

Data request: For the substance shown here, [^natGa]Ga-NODAGA-K(Palm)-K-(D-1-Nal)-FwLL-NH2 [12a] , give the reported Ki.
Data returned: 66.9

Data request: Name the reported Ki value associated with the substance [^natGa]Ga-NODAGA-KK-(D-1-Nal)-FwLK(Palm)-NH2 [15a]
Data returned: 11

====

- system_under_test: Ghrelin receptor (Homo sapiens, UniProt Q92847)
- experiment_description: Inositol phosphate turnover assay in COS-7 cells transfected with the Ghrelin receptor
- test_conditions: EC50 relative to peptide 2
Provide the reported x-fold over No. 2 of each item.
Number, no unit, nothing else.

Data request: Hello, I am looking for reported x-fold over No. 2 with Ghrelin receptor (Homo sapiens, UniProt Q92847) for K[^natGa]Ga-NODAGA-K-(D-1-Nal)-FwLK(Palm)-NH2 [16a] . Could you help?
Data returned: 3

Data request: Provide the documented x-fold over No. 2 with Ghrelin receptor (Homo sapiens, UniProt Q92847) as the system for Palm-KK-(D-1-Nal)-FwLK[^natGa]Ga-NODAGA-NH2 [17a]
Data returned: 132

Data request: Recorded x-fold over No. 2 for [^natGa]Ga-NODAGA-K-(D-1-Nal)-FwLL-NH2 [9a] with Ghrelin receptor (Homo sapiens, UniProt Q92847), please?
Data returned: 14

Data request: Under Ghrelin receptor (Homo sapiens, UniProt Q92847): x-fold over No. 2 value of K(Palm)-K-(D-1-Nal)-FwLK[^natGa]Ga-NODAGA-NH2 [18a] ?
Data returned: 59

Data request: Look up x-fold over No. 2 with Ghrelin receptor (Homo sapiens, UniProt Q92847) for this substance: [^natGa]Ga-NODAGA-K(Palm)-K-(D-1-Nal)-FwLL-NH2 [12a]
Data returned: 5

Data request: Value wanted: x-fold over No. 2 (Ghrelin receptor (Homo sapiens, UniProt Q92847)) of entry [^natGa]Ga-NODAGA-KK-(D-1-Nal)-FwLK(Palm)-NH2 [15a]
Data returned: 4

Data request: API: value(readout= x-fold over No. 2, system= Ghrelin receptor (Homo sapiens, UniProt Q92847), query= [^natGa]Ga-NODAGA-KK-(D-1-Nal)-FwLL-NH2 [10a] )
Data returned: 8

Data request: What is its x-fold over No. 2 for Ghrelin receptor (Homo sapiens, UniProt Q92847)? Entry: Palm-K[^natGa]Ga-NODAGA-K-(D-1-Nal)-FwLL-NH2 [13a]
Data returned: 6

====

- system_under_test: Ghrelin receptor (Homo sapiens)
- experiment_description: Inositol phosphate turnover assay in COS-7 cells transfected with the Ghrelin receptor
- test_conditions: efficacy, mean ± SEM of |Efficacymax - Efficacymin|
Assign Δeff (%) to each entry below.
Reply numerically in %, unit not repeated.

Data request: Which Δeff (%) reading was recorded for the substance K(Palm)-K-(D-1-Nal)-FwLK[^natGa]Ga-NODAGA-NH2 [18a] ?
Data returned: 75

Data request: Fill in: Δeff (%) of K[^natGa]Ga-NODAGA-K-(D-1-Nal)-FwLK(Palm)-NH2 [16a] is ___
Data returned: 90

Data request: Need Δeff (%) of Palm-KK-(D-1-Nal)-FwLK[^natGa]Ga-NODAGA-NH2 [17a] , thanks.
Data returned: 85

Data request: Request the reported Δeff (%) associated with [^natGa]Ga-NODAGA-KK-(D-1-Nal)-FwLK(Palm)-NH2 [15a]
Data returned: 89

====

- system_under_test: Ghrelin receptor (Homo sapiens)
- experiment_description: Inositol phosphate turnover assay in COS-7 cells transfected with the Ghrelin receptor
- test_conditions: COS-7 cells transfected with the Ghrelin receptor
Please provide measured pEC50 ± SEM for the entries that follow.

Data request: Which measured pEC50 ± SEM value corresponds to K[^natGa]Ga-NODAGA-K-(D-1-Nal)-FwLK(Palm)-NH2 [16a] ?
Data returned: 7.9 ± 0.07

Data request: For Palm-KK-(D-1-Nal)-FwLK[^natGa]Ga-NODAGA-NH2 [17a] , what is its reported pEC50 ± SEM?
Data returned: 6.2 ± 0.10

Data request: # lookup: pEC50 ± SEM of [^natGa]Ga-NODAGA-K(Palm)-K-(D-1-Nal)-FwLL-NH2 [12a]
Data returned: 7.7 ± 0.06

Data request: Which value of pEC50 ± SEM has been reported for [^natGa]Ga-NODAGA-KK-(D-1-Nal)-FwLK(Palm)-NH2 [15a] in the records?
Data returned: 7.8 ± 0.05

Data request: Value lookup for pEC50 ± SEM; key = K(Palm)-K-(D-1-Nal)-FwLK[^natGa]Ga-NODAGA-NH2 [18a]
Data returned: 6.6 ± 0.10

Data request: Quick check: pEC50 ± SEM of [^natGa]Ga-NODAGA-K-(D-1-Nal)-FwLL-NH2 [9a] ?
Data returned: 7.2 ± 0.10

Data request: Item [^natGa]Ga-NODAGA-KK-(D-1-Nal)-FwLL-NH2 [10a] has what recorded pEC50 ± SEM?
Data returned: 7.5 ± 0.07

Data request: For the substance shown here, Palm-K[^natGa]Ga-NODAGA-K-(D-1-Nal)-FwLL-NH2 [13a] , give the reported pEC50 ± SEM.
Data returned: 7.5 ± 0.06
